Measured values drawn from paper PMC7827014 for this set.

Tested on: S. epidermidis ATCC 12228
Protocol details: MIC microdilution, standard strain
Assay type: cell-based
Test conditions: Staphylococcus epidermidis, ATCC12228; S. epidermidis ATCC 12228, 18 h, 35 °C; read-out: MIC
Form field: MIC (one value per entry).
// return numeric value only (unit: µg/mL, not printed)

Illustrative cases are given below, each with its answer.
Cc1ccc(Cl)cc1-n1nnnc1NCc1ccco1 [Compound 2]; 256
Fc1ccccc1-n1nnnc1NCc1ccco1 [Compound 6]; 32
Clc1cccc(-n2nnnc2NCc2ccco2)c1 [Compound 4]; 512

Proceed to the following item.
## Task Look up MIC for this molecule: Ic1ccc(-n2nnnc2NCc2ccco2)cc1 [Compound 3]
## Result 128
